target: UniProt Q9UBN7; assay: In vitro histone deacetylase assay: enzymatic HDAC6 electrophoretic mobility shift assay; conditions: full length human recombinant HDAC6, 1 nM enzyme, 2 μM peptide substrate RHKK(Ac)-NH2, 25° C.; read-out: Inhibitory Concentration (IC50) Values for Representative Compounds against HDAC6, Activity Range
Sequence (Q9UBN7 whole entry): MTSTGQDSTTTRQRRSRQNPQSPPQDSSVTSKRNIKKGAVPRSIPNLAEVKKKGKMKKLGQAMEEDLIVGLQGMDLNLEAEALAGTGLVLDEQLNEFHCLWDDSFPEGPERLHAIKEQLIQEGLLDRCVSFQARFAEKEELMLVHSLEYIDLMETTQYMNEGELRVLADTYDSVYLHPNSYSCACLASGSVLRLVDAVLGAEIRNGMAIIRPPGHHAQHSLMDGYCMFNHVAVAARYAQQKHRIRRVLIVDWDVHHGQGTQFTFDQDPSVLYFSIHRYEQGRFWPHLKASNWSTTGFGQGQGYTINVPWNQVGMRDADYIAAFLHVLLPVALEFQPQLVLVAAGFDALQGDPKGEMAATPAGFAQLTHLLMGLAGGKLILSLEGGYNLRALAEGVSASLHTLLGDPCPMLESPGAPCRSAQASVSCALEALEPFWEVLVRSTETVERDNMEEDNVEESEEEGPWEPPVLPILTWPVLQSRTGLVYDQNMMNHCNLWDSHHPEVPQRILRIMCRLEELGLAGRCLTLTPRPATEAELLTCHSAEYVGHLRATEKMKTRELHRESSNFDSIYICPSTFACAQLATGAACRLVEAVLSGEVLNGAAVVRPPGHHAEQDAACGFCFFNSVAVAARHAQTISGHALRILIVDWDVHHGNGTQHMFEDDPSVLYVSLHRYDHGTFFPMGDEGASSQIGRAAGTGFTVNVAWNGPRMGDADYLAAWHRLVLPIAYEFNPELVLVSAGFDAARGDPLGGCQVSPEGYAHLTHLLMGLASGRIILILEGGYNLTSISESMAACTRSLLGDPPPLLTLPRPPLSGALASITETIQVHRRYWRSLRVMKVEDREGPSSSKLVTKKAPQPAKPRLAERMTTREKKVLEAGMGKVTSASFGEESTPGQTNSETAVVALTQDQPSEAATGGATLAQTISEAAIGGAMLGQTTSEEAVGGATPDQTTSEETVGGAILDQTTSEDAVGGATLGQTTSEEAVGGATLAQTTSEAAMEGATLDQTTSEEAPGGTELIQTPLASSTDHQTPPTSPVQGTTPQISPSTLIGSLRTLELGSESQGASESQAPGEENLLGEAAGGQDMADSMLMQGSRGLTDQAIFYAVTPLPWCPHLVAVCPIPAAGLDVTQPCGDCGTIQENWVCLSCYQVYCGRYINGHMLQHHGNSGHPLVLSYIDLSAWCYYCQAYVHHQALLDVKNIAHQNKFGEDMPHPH
Parameter: IC50. Scope: all listed entries.
ENDPOINT: IC50

[[record]]
compound = "CC(C)[C@H]1COc2cc(C(=O)NO)ccc2CN1c1ccccc1"
endpoint = "IC50"
reported_result = "≤ 100 nM"

[[record]]
compound = "O=C1CN(c2ccccc2)Cc2cc(C(=O)NO)ccc2N1"
endpoint = "IC50"
reported_result = "> 500 nM"

[[record]]
compound = "CC[C@H]1COc2cc(C(=O)NO)ccc2CN1c1ccccc1"
endpoint = "IC50"
reported_result = "≤ 100 nM"

[[record]]
compound = "COc1ccc(NC(=O)N2Cc3ccc(C(=O)NO)cc3O[C@H](c3ccccc3)C2)cc1"
endpoint = "IC50"
reported_result = "100 to 500 nM"

[[record]]
compound = "COCCn1c(CN2CCOc3cc(C(=O)NO)ccc3C2)nc2ccccc21"
endpoint = "IC50"
reported_result = "100 to 500 nM"

[[record]]
compound = "C[C@@H]1CN(C)Cc2ccc(C(=O)NO)cc2O1"
endpoint = "IC50"
reported_result = "> 500 nM"

[[record]]
compound = "COCCN1Cc2ccc(C(=O)NO)cc2OC[C@@H]1C"
endpoint = "IC50"
reported_result = "≤ 100 nM"

[[record]]
compound = "C[C@H]1COc2cc(C(=O)NO)ccc2CN1C(=O)N1Cc2ccccc2C1"
endpoint = "IC50"
reported_result = "≤ 100 nM"

[[record]]
compound = "O=C(NO)c1ccc2c(c1)OC[C@H](Cc1ccccc1)N(C(=O)N1CCOCC1)C2"
endpoint = "IC50"
reported_result = "≤ 100 nM"

[[record]]
compound = "COc1ccc(CN2CCOc3cc(C(=O)NO)ccc3C2)cn1"
endpoint = "IC50"
reported_result = "100 to 500 nM"

[[record]]
compound = "O=C(NO)c1ccc2c(c1)OCCN(S(=O)(=O)N1CCCCC1)C2"
endpoint = "IC50"
reported_result = "≤ 100 nM"

[[record]]
compound = "O=C(NO)c1ccc2c(c1)OCCN(c1ccncc1)C2"
endpoint = "IC50"
reported_result = "> 500 nM"

[[record]]
compound = "COc1ccc(CN2CCOc3cc(C(=O)NO)ccc3C2)nc1"
endpoint = "IC50"
reported_result = "100 to 500 nM"

[[record]]
compound = "O=C1CN(Cc2coc(-c3cccc(F)c3)n2)Cc2cc(C(=O)NO)ccc2N1"
endpoint = "IC50"
reported_result = "≤ 100 nM"

[[record]]
compound = "CC(C)[C@H]1COc2cc(C(=O)NO)ccc2CN1c1ccccn1"
endpoint = "IC50"
reported_result = "≤ 100 nM"

[[record]]
compound = "C[C@H]1COc2cc(C(=O)NO)ccc2CN1C(=O)N1C[C@H]2CC[C@H](C1)O2"
endpoint = "IC50"
reported_result = "≤ 100 nM"

[[record]]
compound = "C[C@H]1COc2cc(C(=O)NO)ccc2CN1C(=O)N1CCOCC1"
endpoint = "IC50"
reported_result = "≤ 100 nM"

[[record]]
compound = "O=C1CN(Cc2cccc(OC(F)(F)F)c2)Cc2cc(C(=O)NO)ccc2N1"
endpoint = "IC50"
reported_result = "100 to 500 nM"

[[record]]
compound = "COc1ccc(S(=O)(=O)N2CCOc3cc(C(=O)NO)ccc3C2)cc1"
endpoint = "IC50"
reported_result = "100 to 500 nM"

[[record]]
compound = "Cc1ccc(N2CCOc3cc(C(=O)NO)ccc3C2)cc1"
endpoint = "IC50"
reported_result = "100 to 500 nM"

[[record]]
compound = "O=C(NO)c1ccc2c(c1)OCCN(c1cccnc1)C2"
endpoint = "IC50"
reported_result = "100 to 500 nM"

[[record]]
compound = "O=C(NO)c1ccc2c(c1)OCCN(Cc1ccccc1)S2(=O)=O"
endpoint = "IC50"
reported_result = "> 500 nM"

[[record]]
compound = "CC(c1ccc(F)cc1)N1Cc2ccc(C(=O)NO)cc2OC[C@@H]1C (some centres unmarked)"
endpoint = "IC50"
reported_result = "100 to 500 nM"

[[record]]
compound = "C[C@H]1COc2cc(C(=O)NO)ccc2CN1C(=O)N(C)C"
endpoint = "IC50"
reported_result = "≤ 100 nM"

[[record]]
compound = "CC(C)Oc1ccc(CN2CC(=O)Nc3ccc(C(=O)NO)cc3C2)cc1"
endpoint = "IC50"
reported_result = "≤ 100 nM"

[[record]]
compound = "O=C1CN(Cc2ccncc2)Cc2cc(C(=O)NO)ccc2N1"
endpoint = "IC50"
reported_result = "100 to 500 nM"

[[record]]
compound = "C[C@H]1COc2cc(C(=O)NO)ccc2CN1"
endpoint = "IC50"
reported_result = "100 to 500 nM"

[[record]]
compound = "COc1ccc(NC(=O)N2Cc3ccc(C(=O)NO)cc3OC[C@H]2C(C)C)cc1"
endpoint = "IC50"
reported_result = "100 to 500 nM"

[[record]]
compound = "C[C@H]1COc2cc(C(=O)NO)ccc2CN1CC1CC1"
endpoint = "IC50"
reported_result = "≤ 100 nM"

[[record]]
compound = "CC(C)N1CCC(CN2CC(=O)Nc3ccc(C(=O)NO)cc3C2)CC1"
endpoint = "IC50"
reported_result = "> 500 nM"

[[record]]
compound = "C[C@@H]1CN(c2ccccc2)Cc2ccc(C(=O)NO)cc2O1"
endpoint = "IC50"
reported_result = "100 to 500 nM"

[[record]]
compound = "C[C@H]1COc2cc(C(=O)NO)ccc2CN1c1ccccc1F"
endpoint = "IC50"
reported_result = "≤ 100 nM"

